B1: NR2F2 (parent)
chain: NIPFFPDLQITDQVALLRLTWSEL

- Variants of: B1
- Method Notes: protein stability index of a GFP-peptide fusion (GPS, HEK-293T) (PSI 1-6); higher = more stable;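 further: lentivirally expressed fusions sorted by FACS into six bins by GFP to DsRed ratio, PSI derived from sequencing read proportions per bin multiplied by bin number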
- Condition Summary: c terminus: a fixed tail appended
Property Name: protein stability index
// no unit, no text: just the number

D7V; 2
L8D; 1.98
L8Y; 2.05
L24E; 2.02
P6A; 2.97

Suppose we examine the variant E23I ; what protein stability index value has been reported?
2.96

# query: protein stability index of entry L19A
1.99

Request the reported protein stability index associated with L8I
2.92

Using the record for F5D , report its protein stability index.
2
